- Protocol Notes: chemical genetic growth profiling, strain panel (AID 1159580);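 also: tested at 20 µM; growth read once vehicle control cultures reached saturation at 30 °C; 1 = growth at the plate median or of vehicle wells; lower values mean less growth of the strain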
- Assay Conditions: S. cerevisiae deletion strains, growth OD, locus YGR252W, strain gcn5, stronger effect = lower value
In all, about 5,500 compounds went through this assay and about 2,000 (36%) were called active. Inconclusive results (about 18%) are left out. Some of the results follow.
Quantity: normalized growth

stdin: Give normalized growth for OC/C=C/c1ccc(O)c(O)c1
stdout: 1.24 [resistant] (active)

stdin: # return recorded normalized growth for input O=C1O[C@@H](CO)[C@H](O)[C@@H](O)[C@@H]1O
stdout: 1.06 (inactive)

stdin: Recall and state the measured normalized growth for COc1ccc(/C=C/C(=O)O)cc1OC .
stdout: 1.19 (inactive)

stdin: Supply recorded normalized growth for CN(C)CCCO[C@H]1[C@@H](C(O)CO)OC2OC(C)(C)O[C@@H]21 (some centres undefined) here.
stdout: 0.849 (inactive)

stdin: Tell me its normalized growth given C[C@@H]1CC2C3CCC4=CC(=O)C=C[C@]4(C)[C@@]3(F)[C@@H](O)C[C@]2(C)[C@@]1(O)C(=O)COP(=O)(O)O (some centres undefined) as the entry.
stdout: 0.929 (inactive)

stdin: For CO[C@@H]1[C@@H](O[C@@H]2O[C@H](C)[C@@H](O[C@H]3C[C@@](C)(O)[C@H](O)[C@H](C)O3)[C@H](N(C)C)[C@H]2O)[C@@H](CC=O)C[C@@H](C)[C@@H](O[C@H]2CC[C@H](N(C)C)[C@@H](C)O2)/C=C/C=C/C[C@H](C)OC(=O)C[C@H]1O , write its normalized growth.
stdout: 0.95 (inactive)

stdin: Determine its reported normalized growth: COc1cc(/C=C/C(=O)O)ccc1O
stdout: 1.07 (inactive)

stdin: Look up normalized growth of COc1cc(/C=C/C(=O)O)cc(OC)c1OC and report it.
stdout: 1.02 (inactive)

stdin: Determine from records and report normalized growth for Oc1ccc(/C=C/c2cc(O)cc(O)c2)cc1
stdout: 0.853 (inactive)

----------
- Protocol Notes: chemical genetic growth profiling, strain panel (AID 1159580);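 also: tested at 20 µM; growth read once vehicle control cultures reached saturation at 30 °C; 1 = growth at the plate median or of vehicle wells; lower values mean less growth of the strain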
- Assay Conditions: S. cerevisiae deletion strains, growth OD, locus YGR078C, strain PAC10, stronger effect = lower value
Hit rate of the full screen: of about 5,500 compounds, about 2,000 (36%) were called active. About 18% were inconclusive and are not listed. This is one part of the list.
Measured normalized growth values are reported for all entries that follow.

Observe how each entry below is paired with its result.
| Compound | normalized growth |
| --- | --- |
| CCn1cc(C(=O)O)c(=O)c2cnc(N3CCCC3)nc21 | 1.01 (inactive) |
| O=C1NC(c2c(F)cccc2Cl)Nc2ccccc21 (stereo unspecified) | 1.03 (inactive) |
| COc1ccc(OC)c(S(=O)(=O)NCc2c(F)cccc2Cl)c1 | 1.02 (inactive) |

stdin: Give the reported value of normalized growth for this record: CC[C@@H](C(=O)O)[C@@H]1O[C@@H]([C@@H](C)[C@H](O)[C@H](C)C(=O)[C@H](CC)[C@H]2O[C@]3(C=C[C@@H](O)[C@]4(CC[C@@](C)(C5CC[C@](O)(CC)[C@H](C)O5)O4)O3)[C@H](C)C[C@@H]2C)[C@@H](C)C[C@H]1C (stereo partly specified)
stdout: 0.621 (active)

stdin: Read the entry c1ccc2c(c1)OCC(C1=NCCN1)O2 (stereo unspecified) and write its reported normalized growth.
stdout: 1.01 (inactive)

stdin: Give the measured normalized growth for COc1ccc(/C=C/C(=O)O)cc1OC
stdout: 1.09 (inactive)

stdin: Name the recorded normalized growth of the item CC1=C(C(=O)O)N2C(=O)[C@@H](NC(=O)C(N)C3=CCC=CC3)[C@H]2SC1 (stereo partly specified) in your answer.
stdout: 1.01 (inactive)
